System: monocytic THP1 cells infected with HIV VSV-G pseudotyped GFP-NEF reporter virus
Test: cells
Format: cell-based
Conditions: Human immunodeficiency virus 1, THP-1, 24 h
Exercise: for every item that follows, state its recorded pEC50.
Quick note: pEC50 means taking -log10 of the concentration in moles per liter.

Lab request: please report pEC50 under test system monocytic THP1 cells infected with HIV VSV-G pseudotyped GFP-NEF reporter virus for Cc1cc(/C=C/C#N)cc(C)c1Oc1nc(NC23CC(C#N)(C2)C3)nc2nc3n(c12)C[C@@H](F)CO3 (single isomer, unassigned)
7.29

Now consider Cc1cc(/C=C/C#N)cc(C)c1Oc1nc(NC23CC(C#N)(C2)C3)nc2c1c(C)n[s+]2[O-] (stereo not shown) .
6.80

Also need Cc1cc(/C=C/C#N)cc(C)c1Oc1nc(NC23CC(C#N)(C2)C3)nc2c1C(C)N(c1cnn(C)c1C)C2=O (stereo not shown) , thanks.
7.14

And then Cc1cc(/C=C/C#N)cc(C)c1Oc1nc(NC23CC(C#N)(C2)C3)nc2nn3c(c12)OCCC3 , what is it?
7.29

Item: Cc1cc(/C=C/C#N)cc(C)c1Oc1nc(NC23CC(C#N)(C2)C3)nc2c1[C@H]1OCCCN1C2=O
7.47

Next record, please: Cc1cc(/C=C/C#N)cc(C)c1Oc1nc(NC23CC(C#N)(C2)C3)nc2c1C1(C)SCCCN1C2=O (stereo not shown)
7.38

Try this compound next: C=CCN1C(=O)c2nc(NC34CC(C#N)(C3)C4)nc(Oc3c(C)cc(/C=C/C#N)cc3C)c2C1C (stereo not shown)
7.37

====

Test system: monocytic THP1 cells infected with HIV VSV-G pseudotyped GFP-NEF reporter virus
Test: cells
Assay type: cell-based
Conditions: Human immunodeficiency virus 1, THP-1, 24 h
Give measured EC50 for each item. Keep answers brief.
Report the value in nM with no unit label.

Could you share what EC50 was measured for Cc1cc([C@@H]2C[C@H]2C#N)cc(C)c1Oc1nc(NC23CC(C#N)(C2)C3)nc2nn(C)cc12 (racemic) , tested on monocytic THP1 cells infected with HIV VSV-G pseudotyped GFP-NEF reporter virus?
262

Please do the same for COCCNc1nc2nc(NC34CC(C#N)(C3)C4)nc(Oc3c(C)cc(/C=C/C#N)cc3C)c2[nH]1 as well.
88.6

Subsequent entry: Cc1cc([C@@H]2C[C@@H]2C#N)cc(C)c1Oc1nc(NC23CC(C#N)(C2)C3)nc2nn(C)cc12 (racemic)
1470

Same question, CCOc1cc(/C=C/C#N)cc(Cl)c1Oc1nc(NC23CC(C#N)(C2)C3)nc2[nH]nc(C)c12 this time
29.6

CO[C@H]1COC2c3c(Oc4c(C)cc(/C=C/C#N)cc4C)nc(NC45CC(C#N)(C4)C5)nc3C(=O)N2C1 (single isomer, unassigned) , same question.
77.1

Moving on to the next compound: Cc1cc(/C=C/C#N)cc(C)c1Oc1nc(NC23CC(C#N)(C2)C3)nc2nc(Nc3c(C)noc3C)[nH]c12
231

Again, but for Cc1cc(/C=C/C#N)cc(C)c1Oc1nc(NC23CC(C#N)(C2)C3)nc2c1ncn2C(C)C
168

Similarly, Cc1cc(/C=C/C#N)cc(C)c1Oc1nc(NC23CC(C#N)(C2)C3)nc2c1C1(C)O[C@H](C)CN1C2=O (stereo partly shown) [Compound 308] ?
60.1

Same question for Cc1cc(/C=C/C#N)cc(C)c1Oc1nc(NC23CC(C#N)(C2)C3)nc2nc(C3CCCCC3)[nH]c12 please.
374

Also, Cc1cc(/C=C/C#N)cc(C)c1Oc1nc(NC23CC(C#N)(C2)C3)nc2nn(CC(F)(F)F)c(C)c12 please.
370

Hey, just so you know, these numbers are from patent US20250333424A1.
